A collection of molecules and their measured viscosity
# Method summary: an = ratio of the nth substance listed
# Measurement conditions: 318 K; 100 kPa; Liquid; Falling or rolling sphere viscometry; a2 = 2

Molecule: C[N+](C)(C)CCO.[Cl-] [choline chloride] + OCC(O)CO
viscosity (mPa·s): 110.4
//
Molecule: CCCCCCCC[N+](C)(CCCCCCCC)CCCCCCCC.[Br-] [methyltrioctylammonium bromide] + CCCCCCCCCC(=O)O
viscosity (mPa·s): 171.5
//
Molecule: CCCCCCCC[N+](CCCCCCCC)(CCCCCCCC)CCCCCCCC.[Br-] [tetraoctylammonium bromide] + CCCCCCCCCC(=O)O
viscosity (mPa·s): 201.1
//
Molecule: C[N+](C)(C)CCO.[Cl-] [choline chloride] + OCCO
viscosity (mPa·s): 19.9

* * *

# Method summary: an = ratio of the nth substance listed
# Measurement conditions: 308 K; 100 kPa; Liquid; Vibrating tube method; a2 = 2
Reported endpoint: mass density (kg/m3)

Compound: CCCCCCCC[N+](C)(CCCCCCCC)CCCCCCCC.[Br-] [methyltrioctylammonium bromide] + CCCCCCCCCC(=O)O
Reported endpoint: mass density
Numeric value: 935.2
--
Compound: CCCCCCCC[N+](CCCCCCCC)(CCCCCCCC)CCCCCCCC.[Br-] [tetraoctylammonium bromide] + CCCCCCCCCC(=O)O
Reported endpoint: mass density
Numeric value: 923.7
--
Compound: C[N+](C)(C)CCO.[Cl-] [choline chloride] + OCC(O)CO
Reported endpoint: mass density
Numeric value: 1185.5
--
Compound: C[N+](C)(C)CCO.[Cl-] [choline chloride] + OCCO
Reported endpoint: mass density
Numeric value: 1108.6

* * *

# Method summary: an = ratio of the nth substance listed
# Measurement conditions: 313 K; 100 kPa; Liquid; Vibrating tube method; a2 = 2
Reported endpoint: mass density (kg/m3)

Compound: C[N+](C)(C)CCO.[Cl-] [choline chloride] + OCC(O)CO
Numeric value: 1182.7
--
Compound: C[N+](C)(C)CCO.[Cl-] [choline chloride] + OCCO
Numeric value: 1105.7
--
Compound: CCCCCCCC[N+](CCCCCCCC)(CCCCCCCC)CCCCCCCC.[Br-] [tetraoctylammonium bromide] + CCCCCCCCCC(=O)O
Numeric value: 920.5
--
Compound: CCCCCCCC[N+](C)(CCCCCCCC)CCCCCCCC.[Br-] [methyltrioctylammonium bromide] + CCCCCCCCCC(=O)O
Numeric value: 931.9

* * *

# Method summary: an = ratio of the nth substance listed
# Measurement conditions: 333 K; 100 kPa; Liquid; Frequency=5 MHz; Single path-length method; a2 = 2

Compound: C[N+](C)(C)CCO.[Cl-] [choline chloride] + OCCO
Unit abbrev: m/s
speed of sound: 1802
//
Compound: C[N+](C)(C)CCO.[Cl-] [choline chloride] + OCC(O)CO
Unit abbrev: m/s
speed of sound: 1900
//
Compound: CCCCCCCC[N+](CCCCCCCC)(CCCCCCCC)CCCCCCCC.[Br-] [tetraoctylammonium bromide] + CCCCCCCCCC(=O)O
Unit abbrev: m/s
speed of sound: 1287
//
Compound: CCCCCCCC[N+](C)(CCCCCCCC)CCCCCCCC.[Br-] [methyltrioctylammonium bromide] + CCCCCCCCCC(=O)O
Unit abbrev: m/s
speed of sound: 1283
